# Tested on: E. coli translation
# PROTOCOL_NOTES: In vitro translation assay for inhibition of bacterial protein synthesis (E. coli S30 Extract System, luciferase)
# Assay type: biochemical
# ASSAY_CONDITIONS: 37° C., 1 hour, luciferase luminescence
pIC50: −log10 of the molar value.
Would you kindly list pIC50 for each of these compounds?

I have this compound here, CN(C)c1cccc2c1CC1CC3[C@H](N(C)C)C(O)=C(C(N)=O)C(=O)[C@@]3(O)C(O)=C1C2=O (stereo partly shown) , and I need its recorded pIC50. < 4.00

Same lookup for CN(C)c1cc(C(=O)O)cc2c1CC1CC3[C@H](N(C)C)C(O)=C(C(N)=O)C(=O)[C@@]3(O)C(O)=C1C2=O (stereo partly shown) , please. > 4.00

Same lookup for CN(C)c1cc(C(=O)O)cc2c1CC1CC3[C@@H](N(C)C)C(O)=C(C(N)=O)C(=O)[C@@]3(O)C(O)=C1C2=O (stereo partly shown) , please. > 4.00

Same lookup for CC(=O)c1cccc2c1C(=O)C1=C(O)[C@]3(O)C(=O)C(C(N)=O)=C(O)[C@@H](N(C)C)C3CC1C2 (stereo partly shown) , please. > 4.00

Same lookup for CN(C)c1cc2cc(-c3ccc(N)cc3)oc2c2c1CC1CC3[C@H](N(C)C)C(O)=C(C(N)=O)C(=O)[C@@]3(O)C(O)=C1C2=O (stereo partly shown) , please. > 4.00

Same lookup for CC(=O)c1cc2c(c(N(C)C)c1)CC1CC3[C@H](N(C)C)C(O)=C(C(N)=O)C(=O)[C@@]3(O)C(O)=C1C2=O (stereo partly shown) , please. > 4.00

Same lookup for CN(C)c1cccc2c1CC1CC3[C@@H](N(C)C)C(O)=C(C(N)=O)C(=O)[C@@]3(O)C(O)=C1C2=O (stereo partly shown) , please. < 4.00

* * *

# System: P. acnes (ATCC 11827)
# PROTOCOL_NOTES: In vitro MIC assay, P. acnes (ATCC 11827)
# Format: cell-based
# ASSAY_CONDITIONS: Cutibacterium acnes, ATCC11827; Brucella agar with laked sheep blood, 48 hours anaerobic, 35° C.
REPORTED_METRIC: MIC

I have this compound here, CN(C)[C@H]1C(O)=C(C(N)=O)C(=O)[C@@]2(O)C(O)=C3C(=O)c4cccc(-c5ncccn5)c4CC3CC12 (some centres unmarked) , and I need its recorded MIC. 0 to 8 mg/L

Same lookup for CN(C)c1cccc2c1CC1CC3[C@H](N(C)C)C(O)=C(C(N)=O)C(=O)[C@@]3(O)C(O)=C1C2=O (some centres unmarked) , please. 0 to 8 mg/L

Same lookup for CC1CCN(Cc2cccc3c2CC2CC4[C@@H](N(C)C)C(O)=C(C(N)=O)C(=O)[C@@]4(O)C(O)=C2C3=O)CC1 (some centres unmarked) , please. 0 to 8 mg/L

Same lookup for CC(=O)c1cccc2c1CC1CC3[C@@H](N(C)C)C(O)=C(C(N)=O)C(=O)[C@@]3(O)C(O)=C1C2=O (some centres unmarked) , please. 0 to 8 mg/L

Same lookup for CC(=O)c1cccc2c1CC1CC3[C@H](N(C)C)C(O)=C(C(N)=O)C(=O)[C@@]3(O)C(O)=C1C2=O (some centres unmarked) , please. 0 to 8 mg/L

* * *

# Test system: P. aeruginosa K1033
# PROTOCOL_NOTES: In vitro MIC assay, P. aeruginosa K1033
# Type: cell-based
# ASSAY_CONDITIONS: Pseudomonas aeruginosa, broth microdilution, 35° C., 18-24 hours
Would you kindly list MIC for each of these molecules?

I have this molecule here, CN(C)c1cc(C(=O)O)cc2c1CC1CC3[C@@H](N(C)C)C(O)=C(C(N)=O)C(=O)[C@@]3(O)C(O)=C1C2=O (stereo partly shown) [G] , and I need its recorded MIC. 44 to 64 µg/mL

Same lookup for CN(C)c1cccc2c1CC1CC3CC(O)=C(C(N)=O)C(=O)[C@@]3(O)C(O)=C1C2=O (stereo partly shown) [E] , please. 0 to 21 µg/mL

Same lookup for CN(C)[C@H]1C(O)=C(C(N)=O)C(=O)[C@@]2(O)C(O)=C3C(=O)c4cccc(-c5ncccn5)c4CC3CC12 (stereo partly shown) [L] , please. 0 to 21 µg/mL

Same lookup for CN(C)[C@@H]1C(O)=C(C(N)=O)C(=O)[C@@]2(O)C(O)=C3C(=O)c4c(cccc4OS(=O)(=O)C(F)(F)F)CC3CC12 (stereo partly shown) [O] , please. 0 to 21 µg/mL

* * *

# Tested on: P. acnes (PBS 1074)
# PROTOCOL_NOTES: In vitro MIC assay, P. acnes (PBS 1074)
# Assay type: cell-based
# ASSAY_CONDITIONS: Cutibacterium acnes; Brucella agar with laked sheep blood, 48 hours anaerobic, 35° C.
REPORTED_METRIC: MIC

I have this compound here, CC(=O)c1cccc2c1CC1CC3[C@@H](N(C)C)C(O)=C(C(N)=O)C(=O)[C@@]3(O)C(O)=C1C2=O (some centres unmarked) , and I need its recorded MIC. 28 to 32 µg/mL

Same lookup for CC(=O)c1cccc2c1CC1CC3[C@H](N(C)C)C(O)=C(C(N)=O)C(=O)[C@@]3(O)C(O)=C1C2=O (some centres unmarked) , please. 28 to 32 µg/mL

Same lookup for CN(C)c1cccc2c1CC1CC3[C@H](N(C)C)C(O)=C(C(N)=O)C(=O)[C@@]3(O)C(O)=C1C2=O (some centres unmarked) , please. 9 to 27 µg/mL

Same lookup for CN(C)[C@H]1C(O)=C(C(N)=O)C(=O)[C@@]2(O)C(O)=C3C(=O)c4cccc(-c5ncccn5)c4CC3CC12 (some centres unmarked) , please. 28 to 32 µg/mL

Same lookup for CC1CCN(Cc2cccc3c2CC2CC4[C@@H](N(C)C)C(O)=C(C(N)=O)C(=O)[C@@]4(O)C(O)=C2C3=O)CC1 (some centres unmarked) , please. 28 to 32 µg/mL

* * *

The following compounds have recorded MIC on B. theraiotaomicron (ATCC 29741).

Lookup: MIC / B. theraiotaomicron (ATCC 29741) / CC(=O)c1cccc2c1CC1CC3[C@H](N(C)C)C(O)=C(C(N)=O)C(=O)[C@@]3(O)C(O)=C1C2=O (some centres unmarked) [J] 28 to 32 µg/mL

Same lookup for CC(=O)c1cccc2c1CC1CC3[C@@H](N(C)C)C(O)=C(C(N)=O)C(=O)[C@@]3(O)C(O)=C1C2=O (some centres unmarked) [I] , please. 28 to 32 µg/mL

Same lookup for CN(C)c1cccc2c1CC1CC3[C@H](N(C)C)C(O)=C(C(N)=O)C(=O)[C@@]3(O)C(O)=C1C2=O (some centres unmarked) [Compound A] , please. 9 to 27 µg/mL

Same lookup for CC1CCN(Cc2cccc3c2CC2CC4[C@@H](N(C)C)C(O)=C(C(N)=O)C(=O)[C@@]4(O)C(O)=C2C3=O)CC1 (some centres unmarked) [K] , please. 28 to 32 µg/mL

Same lookup for CN(C)[C@H]1C(O)=C(C(N)=O)C(=O)[C@@]2(O)C(O)=C3C(=O)c4cccc(-c5ncccn5)c4CC3CC12 (some centres unmarked) [L] , please. 28 to 32 µg/mL

* * *

Would you kindly list MIC for each of these compounds?
# Test system: P. aeruginosa K1033
# PROTOCOL_NOTES: In vitro MIC assay, P. aeruginosa K1033
# Format: cell-based
# ASSAY_CONDITIONS: Pseudomonas aeruginosa, broth microdilution, 35° C., 18-24 hours

I have this compound here, CC(=O)c1cccc2c1CC1CC3[C@H](N(C)C)C(O)=C(C(N)=O)C(=O)[C@@]3(O)C(O)=C1C2=O (stereo partly drawn) [J] , and I need its recorded MIC. 0 to 21 µg/mL

Same lookup for CN(C)c1cccc2c1CC1CC3[C@@H](N(C)C)C(O)=C(C(N)=O)C(=O)[C@@]3(O)C(O)=C1C2=O (stereo partly drawn) [C] , please. 0 to 21 µg/mL

Same lookup for CC1CCN(c2cccc3c2C(=O)C2=C(O)[C@]4(O)C(=O)C(C(N)=O)=C(O)[C@@H](N(C)C)C4CC2C3)CC1 (stereo partly drawn) [M] , please. 0 to 21 µg/mL

* * *

Would you kindly list MIC for each of these molecules?
# Test system: E. coli MG 1655 DWAK
# PROTOCOL_NOTES: In vitro MIC assay, E. coli MG 1655 DWAK
# Format: cell-based
# ASSAY_CONDITIONS: Escherichia coli, MG1655DWAK; broth microdilution, 35° C., 18-24 hours

I have this molecule here, CC1CCN(c2cccc3c2C(=O)C2=C(O)[C@]4(O)C(=O)C(C(N)=O)=C(O)[C@@H](N(C)C)C4CC2C3)CC1 (some centres unmarked) [M] , and I need its recorded MIC. 0 to 21 µg/mL

Same lookup for CC(=O)c1cccc2c1CC1CC3[C@H](N(C)C)C(O)=C(C(N)=O)C(=O)[C@@]3(O)C(O)=C1C2=O (some centres unmarked) [J] , please. 0 to 21 µg/mL

Same lookup for CN(C)[C@@H]1C(O)=C(C(N)=O)C(=O)[C@@]2(O)C(O)=C3C(=O)c4c(cccc4OS(=O)(=O)C(F)(F)F)CC3CC12 (some centres unmarked) [O] , please. 0 to 21 µg/mL

Same lookup for CN(C)[C@H]1C(O)=C(C(N)=O)C(=O)[C@@]2(O)C(O)=C3C(=O)c4cccc(-c5ncccn5)c4CC3CC12 (some centres unmarked) [L] , please. 0 to 21 µg/mL

Same lookup for NC(=O)C1=C(O)CC2CC3Cc4ccccc4C(=O)C3=C(O)[C@]2(O)C1=O (some centres unmarked) [F] , please. 0 to 21 µg/mL

Same lookup for CC1CCN(Cc2cccc3c2CC2CC4[C@@H](N(C)C)C(O)=C(C(N)=O)C(=O)[C@@]4(O)C(O)=C2C3=O)CC1 (some centres unmarked) [K] , please. 0 to 21 µg/mL

Same lookup for CN(C)c1cc(C(=O)O)cc2c1CC1CC3[C@@H](N(C)C)C(O)=C(C(N)=O)C(=O)[C@@]3(O)C(O)=C1C2=O (some centres unmarked) [G] , please. 44 to 64 µg/mL

Same lookup for CC(=O)c1cc2c(c(N(C)C)c1)CC1CC3[C@H](N(C)C)C(O)=C(C(N)=O)C(=O)[C@@]3(O)C(O)=C1C2=O (some centres unmarked) [H] , please. 22 to 43 µg/mL

Same lookup for CN(C)c1cccc2c1CC1CC3CC(O)=C(C(N)=O)C(=O)[C@@]3(O)C(O)=C1C2=O (some centres unmarked) [E] , please. 0 to 21 µg/mL

Same lookup for CC(=O)c1cccc2c1CC1CC3[C@@H](N(C)C)C(O)=C(C(N)=O)C(=O)[C@@]3(O)C(O)=C1C2=O (some centres unmarked) [I] , please. 0 to 21 µg/mL

Same lookup for CN(C)c1cccc2c1CC1CC3[C@@H](N(C)C)C(O)=C(C(N)=O)C(=O)[C@@]3(O)C(O)=C1C2=O (some centres unmarked) [C] , please. 0 to 21 µg/mL

Same lookup for CC(=O)c1cccc2c1C(=O)C1=C(O)[C@]3(O)C(=O)C(C(N)=O)=C(O)[C@@H](N(C)C)C3CC1C2 (some centres unmarked) [N] , please. 0 to 21 µg/mL

Same lookup for CN(C)c1cccc2c1CC1CC3[C@H](N(C)C)C(O)=C(C(N)=O)C(=O)[C@@]3(O)C(O)=C1C2=O (some centres unmarked) [Compound A] , please. 0 to 21 µg/mL

Same lookup for CN(C)c1cc(C(=O)O)cc2c1CC1CC3[C@H](N(C)C)C(O)=C(C(N)=O)C(=O)[C@@]3(O)C(O)=C1C2=O (some centres unmarked) [D] , please. 44 to 64 µg/mL
